The values you see were collected from patent US20110052582A1.

Target: T1, Soluble CDCP1 extracellular domain (CDCP1-ECD) (SEQ ID NO:30) fused to Streptavidin Binding Protein (SBP) (human, UniProt Q9H5V8 30-663)
T1 construct: also called SBP-CDCP1-ECD
T1 sequence: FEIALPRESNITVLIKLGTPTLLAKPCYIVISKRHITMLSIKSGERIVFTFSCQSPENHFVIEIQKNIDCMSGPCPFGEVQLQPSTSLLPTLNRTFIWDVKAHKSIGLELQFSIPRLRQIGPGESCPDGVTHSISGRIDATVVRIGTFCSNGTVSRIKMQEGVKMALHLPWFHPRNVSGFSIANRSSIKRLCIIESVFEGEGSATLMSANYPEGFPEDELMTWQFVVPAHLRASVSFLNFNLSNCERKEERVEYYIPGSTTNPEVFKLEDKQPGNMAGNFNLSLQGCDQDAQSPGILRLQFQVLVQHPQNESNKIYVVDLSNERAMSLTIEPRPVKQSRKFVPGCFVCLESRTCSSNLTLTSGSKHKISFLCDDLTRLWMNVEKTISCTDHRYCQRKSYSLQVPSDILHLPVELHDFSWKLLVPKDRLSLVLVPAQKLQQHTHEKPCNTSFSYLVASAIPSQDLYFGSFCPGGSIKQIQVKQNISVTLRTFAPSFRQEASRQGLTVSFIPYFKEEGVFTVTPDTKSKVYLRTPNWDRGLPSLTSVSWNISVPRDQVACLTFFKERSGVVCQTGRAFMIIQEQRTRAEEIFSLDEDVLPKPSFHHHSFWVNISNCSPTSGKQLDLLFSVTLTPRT
Assay: ELISA on captured SBP-CDCP1-ECD, ratio relative to chimeric CUB4 (chHC4)
valueKind: relative binding ratio

Take a look at these entries with their results.
binder | relative binding ratio
hHC4-03 / hLC4-L (antibody, V domains shown) VH: EVQLLESGGGLVQPGGSLRLSCAASGFTFNSYGMSWVRQAPGKGLEWVSAISSGGSYTYYPDSVKGRFTISRDNSKNTLYLQMNSLRAEDTAVYYCAKHPDYDGVWFAYWGQGTLVTVSS VL: EIVLTQSPATLSLSPGERATMSCRASSSVFYLHWYQQKPGQAPRLWIYDTSKLASGIPARFSGSGSGTDFTLTISSLEPEDFAVYYCQQWNSNPPTFGGGTKVEIK | 0.17
hHC4-04 / hLC4-f (antibody, V domains shown) VH: EVQLLESGGGLVQPGGSLRLSCAASGFTFNSYGMSWVRQAPGKGLEWVSTISSGGSYTYYPDSVKGRFTISRDNSKNTLYLQMNSLRAEDTAVYYCARHPDYDGVWFAYWGQGTLVTVSS VL: DIQMTQSPSSLSASVGDRVTITCSVSSSVFYVHWYQQKPGKAPKLLIYDTSKLASGVPSRFSGSGSGTDYTFTISSLQPEDIATYYCQQWNSNPPTFGGGTKVEIK | 0.37
hHC4-c / hLC4-e (antibody, V domains shown) VH: EVQLVESGGGLVQPGGSLRLSCAASGFTFNSYGMSWVRQAPGKGLEWVATISSGGSYTYYPDSVKGRFTISRDNAKNSLYLQMNSLRAEDTAVYYCARHPDYDGVWFAYWGQGTLVTVSS VL: DIQMTQSPSSLSASVGDRVTITCSVSSSVFYVHWYQQKPGKAPKLLIYDTSKLASGVPSRFSGSGSGTDFTFTISSLQPEDIATYYCQQWNSNPPTFGGGTKVEIK | 0.25

GET /value?item= hHC4-04 / hLC4-K (antibody, V domains shown) VH: EVQLLESGGGLVQPGGSLRLSCAASGFTFNSYGMSWVRQAPGKGLEWVSTISSGGSYTYYPDSVKGRFTISRDNSKNTLYLQMNSLRAEDTAVYYCARHPDYDGVWFAYWGQGTLVTVSS VL: EIVLTQSPATLSLSPGERATLSCRASSSVFYLHWYQQKPGQAPRLWIYDTSKLASGIPARFSGSGSGTDFTLTISSLEPEDFAVYYCQQWNSNPPTFGGGTKVEIK &field=relative binding ratio returns 0.57

GET /value?item= hHC4-03 / hLC4-a (antibody, V domains shown) VH: EVQLLESGGGLVQPGGSLRLSCAASGFTFNSYGMSWVRQAPGKGLEWVSAISSGGSYTYYPDSVKGRFTISRDNSKNTLYLQMNSLRAEDTAVYYCAKHPDYDGVWFAYWGQGTLVTVSS VL: EIVLTQSPATLSLSPGERATLSCSVSSSVFYVHWYQQKPGQAPRLLIYDTSKLASGIPARFSGSGSGTDFTLTISSLEPEDFAVYYCQQWNSNPPTFGGGTKVEIK &field=relative binding ratio returns 0.07
